Molecular target: PK/LDH (pyruvate kinase and lactate dehydrogenase)
Experiment: PK/LDH auxiliary enzyme assay
Type: biochemical
Settings: 10 mM stock in DMSO at RT, 7 days of incubation
parameter.measured: IC50 (µM)
Answer format: numeric, µM implied, no suffix.

IC50 reading for CCn1c(C)cc(-c2csc(Nc3ccccc3C(F)(F)F)n2)c1C [Compound 1] : 48

* * *

Target: PfIspE (Plasmodium falciparum, UniProt Q8I470)
Sequence (Q8I470 entry or part of it): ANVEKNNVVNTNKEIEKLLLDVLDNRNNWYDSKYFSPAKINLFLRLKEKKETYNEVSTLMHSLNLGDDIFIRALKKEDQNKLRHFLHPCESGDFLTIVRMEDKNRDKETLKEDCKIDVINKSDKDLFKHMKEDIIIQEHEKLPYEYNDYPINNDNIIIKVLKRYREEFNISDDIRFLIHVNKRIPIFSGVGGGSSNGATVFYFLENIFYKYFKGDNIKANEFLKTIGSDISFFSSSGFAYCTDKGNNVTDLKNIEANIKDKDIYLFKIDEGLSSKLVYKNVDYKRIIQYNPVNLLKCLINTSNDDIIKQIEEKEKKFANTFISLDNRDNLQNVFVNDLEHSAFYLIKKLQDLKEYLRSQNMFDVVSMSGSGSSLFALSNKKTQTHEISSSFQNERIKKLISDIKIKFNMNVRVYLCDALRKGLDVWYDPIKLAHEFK
Experiment: PfIspE enzymatic assay (coupled to PK/LDH, NADH oxidation at 340 nm)
Type: biochemical
Conditions: 10 mM stock in ACN at RT, 9 days of incubation
pIC50: −log10 of the molar value.
parameter.measured: pIC50

Measured pIC50 for this entry CCn1c(C)cc(-c2csc(Nc3ccccc3C(F)(F)F)n2)c1C on PfIspE (Plasmodium falciparum, UniProt Q8I470): < 3.30

* * *

Biological target: PfIspE (Plasmodium falciparum)
Test: PfIspE enzymatic assay (coupled to PK/LDH, NADH oxidation at 340 nm)
Assay type: biochemical
Conditions: 10 mM stock in MeOH at RT, 0 days of incubation
parameter.measured: IC50

IC50 reading for CCn1c(C)cc(-c2csc(Nc3ccccc3C(F)(F)F)n2)c1C [Compound 1] : > 500 µM

* * *

Biological target: UniProtKB Q8I470
Experiment: PfIspE enzymatic assay (coupled to PK/LDH, NADH oxidation at 340 nm)
Format: biochemical
Settings: 10 mM stock in ACN at RT, 0 days of incubation
Experimental: Firstly, we performed a temperature‐dependent decomposition study of compound 1 at 10 mM concentration in DMSO at room temperature (RT), +4 °C and −20 °C (SI, Section 2.3). […] Besides visual inspection of the colour changes of the test sample (see Table 2), the decomposition was monitored by HRMS and NMR spectroscopy. […] For the final purified compounds, replicates were measured and standard deviation was calculated at least from two replicates. […]
pIC50: −log10 of the molar value.
parameter.measured: pIC50

pIC50 reading for CCn1c(C)cc(-c2csc(Nc3ccccc3C(F)(F)F)n2)c1C [Compound 1] : < 3.30

* * *

Biological target: PfIspE (Plasmodium falciparum, UniProt Q8I470)
Test: PfIspE enzymatic assay (coupled to PK/LDH, NADH oxidation at 340 nm)
Format: biochemical
Details: 10 mM stock in MeOH at RT, 9 days of incubation
Protocol: Firstly, we performed a temperature‐dependent decomposition study of compound 1 at 10 mM concentration in DMSO at room temperature (RT), +4 °C and −20 °C (SI, Section 2.3). […] Besides visual inspection of the colour changes of the test sample (see Table 2), the decomposition was monitored by HRMS and NMR spectroscopy. […] For the final purified compounds, replicates were measured and standard deviation was calculated at least from two replicates. […]
parameter.measured: IC50

Measured IC50 for this entry CCn1c(C)cc(-c2csc(Nc3ccccc3C(F)(F)F)n2)c1C on PfIspE (Plasmodium falciparum, UniProt Q8I470): > 500 µM

* * *

Molecular target: PfIspE (Plasmodium falciparum, UniProt Q8I470)
Assay: PfIspE enzymatic assay (coupled to PK/LDH, NADH oxidation at 340 nm)
Format: biochemical
Conditions: analytical sample, DMSO at RT, 2 days of incubation; dissolved in methanol shortly before the assay
pIC50: −log10 of the molar value.
parameter.measured: pIC50

pIC50 reading for CCn1c(C)cc(-c2csc(Nc3ccccc3C(F)(F)F)n2)c1C : < 3.30
